Cited source: ChEMBL document CHEMBL5346943

- Run description: MRT (0 to t) in Sprague-Dawley rat measured at 10 mg/kg, po for 0.083 to 24 hrs by LC-MS/MS analysis
- Type: ADME, organism-based
- Condition description: in vivo, time 0.083-24 hrs
Readout label: MRT last

>  <Item smiles>
C=CC(=O)N1CCC(c2cc3c(Oc4ccc(NC(=O)NC5CC5)c(Cl)c4)ccnc3cc2OC)CC1

>  <Reported value>
1.99 h

$$$$

Attention now shifts to the item below.
Data request: Identify the reported MRT last for the following entry. `C=CC(=O)N1CCC(c2cc3c(Oc4ccc(NC(=O)NC5CC5)c(Cl)c4)ccnc3cc2OCC)CC1`
Data returned: 1.33 h

----------
- Run description: MRT (0 to infinity) in Sprague-Dawley rat measured at 10 mg/kg, po for 0.083 to 24 hrs by LC-MS/MS analysis
- Assay type: ADME, organism-based
- Condition description: in vivo, time 0.083-24 hrs
Readout label: MRT (h)
Only the number, expressed in h, is required.

Data request: Identify the reported MRT for the following entry. `C=CC(=O)N1CCC(c2cc3c(Oc4ccc(NC(=O)NC5CC5)c(Cl)c4)ccnc3cc2OC)CC1`
Data returned: 3.16

Data request: Identify the reported MRT for the following entry. `C=CC(=O)N1CCC(c2cc3c(Oc4ccc(NC(=O)NC5CC5)c(Cl)c4)ccnc3cc2OCC)CC1`
Data returned: 1.42

----------
Readings of MRT for the listed molecules
- Run description: MRT (0 to infinity) in Sprague-Dawley rat measured at 2 mg/kg, iv for 0.083 to 24 hrs by LC-MS/MS analysis
- Assay type: ADME, organism-based
- Condition description: in vivo, time 0.083-24 hrs
Only the number, expressed in min, is required.

>  <Item smiles>
C=CC(=O)N1CCC(c2cc3c(Oc4ccc(NC(=O)NC5CC5)c(Cl)c4)ccnc3cc2OCC)CC1

>  <Scale unit>
min

>  <MRT>
10.2

$$$$

Data request: Identify the reported MRT for the following entry. `C=CC(=O)N1CCC(c2cc3c(Oc4ccc(NC(=O)NC5CC5)c(Cl)c4)ccnc3cc2OC)CC1`
Data returned: 11.4

----------
- Run description: AUC(0 to infinity) in Sprague-Dawley rat measured at 30 mg/kg, po for 0.083 to 24 hrs by LC-MS/MS analysis
- Type: ADME, organism-based
- Design: time upper 24 hrs, dose 30 mg/kg, time lower 0.083 hrs, route po
- Condition description: in vivo
Readout label: AUC(0-inf) (ng·h/mL)
Only the number, expressed in ng·h/mL, is required.

Data request: Identify the reported AUC(0-inf) for the following entry. `C=CC(=O)N1CCC(c2cc3c(Oc4ccc(NC(=O)NC5CC5)c(Cl)c4)ccnc3cc2OC)CC1`
Data returned: 7950

----------
- System: Huh-7
- Run description: Antiproliferative activity against human Huh-7 cells incubated for 72 hrs by Cell counting kit 8 method
- Type: functional, cell-based
- Condition description: Huh-7, 72 h
Readout label: log10(IC50) (log10 of the value in nM)
Log10 applied to IC50; unit prior to transform: nM.

Answered examples (4):
>  <Molecule>
C=CC(=O)N1CCC(c2cc3c(Oc4ccc(NC(=O)Nc5cc(C)on5)c(Cl)c4)ccnc3cc2OC)CC1

>  <log10(IC50)>
2.58

$$$$
>  <Molecule>
C=CC(=O)N1CCC(c2cc3c(Oc4ccc(NC(=O)NC5CC5)c(Cl)c4)c(C#N)cnc3cc2OC)CC1

>  <log10(IC50)>
3.95

$$$$
>  <Molecule>
COc1cc2nccc(Oc3ccc(NC(=O)NC4CC4)c(Cl)c3)c2cc1C1CCN(C(=O)/C=C/C(F)(F)F)CC1

>  <log10(IC50)>
2.01

$$$$
>  <Molecule>
COc1cc2nccc(Oc3ccc(NC(=O)NC4CC4)c(Cl)c3)c2cc1C1CCN(C(=O)C(F)(F)F)CC1

>  <log10(IC50)>
3.15

$$$$

Data request: Identify the reported log10(IC50) for the following entry. `COc1cc2nccc(Oc3ccc(NC(=O)NC4CC4)c(Cl)c3)c2cc1C1CCN(C(=O)/C=C/CN(C)C)CC1`
Data returned: 1.42

Data request: Identify the reported log10(IC50) for the following entry. `C=CC(=O)N1CC=C(c2cc3c(Oc4ccc(NC(=O)NC5CC5)c(Cl)c4)ccnc3cc2OC)C1`
Data returned: 3.18

Data request: Identify the reported log10(IC50) for the following entry. `C=CC(=O)N1CCC(c2cc3c(Oc4ccc(NC(=O)NC5CC5)c(Cl)c4)ccnc3cc2OCC)CC1`
Data returned: 0.97

Data request: Identify the reported log10(IC50) for the following entry. `C=CC(=O)N1CCC(c2cc3c(Oc4ccc(NC(=O)Cc5ccccc5)cc4F)ccnc3cc2OC)CC1`
Data returned: 3.34

Data request: Identify the reported log10(IC50) for the following entry. `C=CC(=O)N1CCC(c2cc3c(Oc4ccc5c(C(=O)NC)cccc5c4)ccnc3cc2OC)CC1`
Data returned: 2.06

Data request: Identify the reported log10(IC50) for the following entry. `C=CC(=O)N1CCC(c2cc3c(Oc4ccc(NC(=O)NC5CC5)c(Cl)c4)ccnc3cc2OC)CC1`
Data returned: 1.10

Data request: Identify the reported log10(IC50) for the following entry. `C=CC(=O)N1CCC(c2cc3c(Oc4ccc(NC(=O)c5c(C)n(C)n(-c6ccccc6)c5=O)cc4F)ccnc3cc2OC)CC1`
Data returned: 3.23

Data request: Identify the reported log10(IC50) for the following entry. `C=CC(=O)N1CCC(c2cc3c(Oc4ccc5c(C(=O)NC)c(C)oc5c4)ccnc3cc2OC)CC1`
Data returned: 1.52

Data request: Identify the reported log10(IC50) for the following entry. `C=CC(=O)N1CCC(c2cc3c(Oc4ccc(NC(=O)NC5CC5)c(OCC)c4)ccnc3cc2OC)CC1`
Data returned: 2.55

Data request: Identify the reported log10(IC50) for the following entry. `C=CC(=O)N1CCC(c2cc3c(Oc4ccc(NC(=O)NC5CC5)c(F)c4)ccnc3cc2OC)CC1`
Data returned: 1.32

Data request: Identify the reported log10(IC50) for the following entry. `C=CC(=O)N1CCC(c2cc3c(Oc4ccc(NC(=O)NC5CC5)c(Cl)c4)ccnc3cc2OC(C)C)CC1`
Data returned: 1.58

Data request: Identify the reported log10(IC50) for the following entry. `C=CC(=O)N1CCC(c2cc3c(Oc4cc5cc(C)[nH]c5cc4F)ccnc3cc2OC)CC1`
Data returned: 2.33

Data request: Identify the reported log10(IC50) for the following entry. C=CC(=O)N1CCC(c2cc3c(Oc4ccc(NC(=O)NC5CC5)c(Cl)c4)ccnc3cc2OC)C(C)C1 (stereo not given)
Data returned: 1.23

Data request: Identify the reported log10(IC50) for the following entry. COc1cc2nccc(Oc3ccc(NC(=O)NC4CC4)c(Cl)c3)c2cc1C(N)=O [LENVATINIB]
Data returned: 2.93

Data request: Identify the reported log10(IC50) for the following entry. `[2H]C([2H])([2H])Oc1cc2nccc(Oc3ccc(NC(=O)NC4CC4)c(Cl)c3)c2cc1C1CCN(C(=O)C=C)CC1`
Data returned: 1.25

Data request: Identify the reported log10(IC50) for the following entry. `C=CC(=O)N1CCC(c2cc3c(Oc4ccc(NC(=O)NC5CC5)c(Cl)c4)ccnc3cc2OCC(F)(F)F)CC1`
Data returned: 1.19

Data request: Identify the reported log10(IC50) for the following entry. `C=CC(=O)N1CCC(c2cc3c(Oc4ccc(NC(=O)NC5CC5)c(Cl)c4)ncnc3cc2OC)CC1`
Data returned: 1.85

Data request: Identify the reported log10(IC50) for the following entry. `C=CC(=O)N1CC=C(c2cc3c(Oc4ccc(NC(=O)NC5CC5)c(Cl)c4)ccnc3cc2OC)CC1`
Data returned: 1.73

----------
- Run description: Volume of distribution at steady state in Sprague-Dawley rat measured at 2 mg/kg, iv for 0.083 to 24 hrs by LC-MS/MS analysis
- Assay type: ADME, organism-based
- Condition description: in vivo, time 0.083-24 hrs, read-out: Vdss
Readout label: Vd (L/kg)
Only the number, expressed in L/kg, is required.

Data request: Identify the reported Vd for the following entry. `C=CC(=O)N1CCC(c2cc3c(Oc4ccc(NC(=O)NC5CC5)c(Cl)c4)ccnc3cc2OCC)CC1`
Data returned: 0.659

Data request: Identify the reported Vd for the following entry. `C=CC(=O)N1CCC(c2cc3c(Oc4ccc(NC(=O)NC5CC5)c(Cl)c4)ccnc3cc2OC)CC1`
Data returned: 1.32

----------
- Run description: Tmax in Sprague-Dawley rat measured at 10 mg/kg, po for 0.083 to 24 hrs by LC-MS/MS analysis
- Format: ADME, organism-based
- Condition description: in vivo, time 0.083-24 hrs
Readout label: Tmax (min)
Only the number, expressed in min, is required.

>  <Item smiles>
C=CC(=O)N1CCC(c2cc3c(Oc4ccc(NC(=O)NC5CC5)c(Cl)c4)ccnc3cc2OC)CC1

>  <Readout label>
Tmax

>  <Reported value>
15

$$$$

Attention now shifts to the item below.
Data request: Identify the reported Tmax for the following entry. `C=CC(=O)N1CCC(c2cc3c(Oc4ccc(NC(=O)NC5CC5)c(Cl)c4)ccnc3cc2OCC)CC1`
Data returned: 15
